# experiment: chemical genetic growth profiling, strain panel (AID 1159580);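 further: tested at 20 µM; growth read once vehicle control cultures reached saturation at 30 °C; lower values mean less growth of the strain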
# applied_conditions: S. cerevisiae deletion strains, growth OD, locus YKL085W, strain MDH1
The campaign covered roughly 5,500 compounds. About 2,000 (36%) were called active. Inconclusive results (about 18%) are left out. No stated cut-off is given here; in the data, active means normalized growth mostly below about 0.91 (no sharp cut-off); inconclusive means no clear call, values can overlap the other calls; inactive means mostly above about 0.92. This is one part of the list.
Outcome field: choose from active, inactive

Query block: # outcome recorded in this test, key = COC1C(O)C(O)C(O)[C@@H](O)C1O (some centres not stated)
Result block: inactive

Continuing:
Query block: # outcome recorded in this test, key = CNC1(C)C2CCC(C2)C1(C)C (configuration not stated)
Result block: inactive

Query block: Then what about the compound "CN=C(NC#N)NCCSCc1nc[nH]c1C" ?
Result block: inactive

Query block: Then what about the compound CCc1ccc(CCOc2ccc(CC3SC(=O)NC3=O)cc2)nc1 (configuration not stated) ?
Result block: inactive

Query block: Then what about the compound "Cc1cc(=O)c2c(O)c(C)c(O)cc2o1" ?
Result block: inactive

Query block: Then what about the compound "COc1c(O)cc2oc3cc(O)c(CC=C(C)C)c(O)c3c(=O)c2c1CC=C(C)C" ?
Result block: active

Query block: Then what about the compound "N=c1nc(N2CCCCC2)cc(N)n1O" ?
Result block: inactive

Query block: Then what about the compound "Cc1ccc2c(c1)CC[C@H]1CC(=O)CC[C@]21C" ?
Result block: inactive

Query block: Then what about the compound CC(=O)O[C@@](C)(CCC=C(C)C)C1CC=C(C)CC1 (some centres not stated) ?
Result block: inactive

Query block: Then what about the compound "COc1cc(O)c(C(=O)c2ccccc2)cc1O" ?
Result block: inactive

Query block: Then what about the compound "Cc1cc(=O)c2c(O)cc(O)c(C)c2o1" ?
Result block: inactive

Query block: Then what about the compound "O=C(/C=C/C=C/c1ccc2c(c1)OCO2)N1CCCCC1" ?
Result block: inactive

Query block: Then what about the compound "Cc1cc(C(C)(C)CC(C)(C)C)ccc1OCCOCC[N+](C)(C)Cc1ccccc1" ?
Result block: active

Query block: Then what about the compound "CCCCOc1ccc(C(=O)CCN2CCCCC2)cc1" ?
Result block: inactive

Query block: Then what about the compound "COC(=O)c1c(Cl)c(Cl)c(C(=O)OC)c(Cl)c1Cl" ?
Result block: inactive

Query block: Then what about the compound "O=[N+]([O-])O[C@H]1CO[C@H]2[C@@H]1OC[C@H]2O[N+](=O)[O-]" ?
Result block: inactive

Query block: Then what about the compound "C[CH2][Hg][S]c1ccccc1C(=O)O" ?
Result block: active

Query block: Then what about the compound "Cc1c(O)cc(O)c2c(=O)c(-c3ccc(O)cc3)coc12" ?
Result block: inactive

Query block: Then what about the compound "COc1ccc(C(=O)c2ccccc2O)c(O)c1" ?
Result block: active

Query block: Then what about the compound "OCCN(CCO)c1nc(N2CCCCC2)c2nc(N(CCO)CCO)nc(N3CCCCC3)c2n1" ?
Result block: inactive

Query block: Then what about the compound CCC(C(N)=O)c1ccccc1 (configuration not stated) ?
Result block: inactive

Query block: Then what about the compound "C[C@@H]1O[C@@H](O[C@H]2[C@@H](Oc3cc(O)c4c(c3)O[C@H](c3ccc(O)cc3)CC4=O)O[C@H](CO)[C@@H](O)[C@@H]2O)[C@H](O)[C@H](O)[C@H]1O" ?
Result block: inactive
